Experiment: Relative inhibition index was the ratio between AK-M and AK III
Format: functional
readoutLabel: Relative inhibition index
Lab note: write the figure by itself, no unit.

Would you mind telling me what Relative inhibition index value was observed for CCC1O[C@@H]2[C@H](O1)[C@@H](COP(=O)(O)O)O[C@H]2n1cnc2c(N)ncnc21 (stereo not given in full) ?
2.8

Would you mind telling me what Relative inhibition index value was observed for CN(C)c1nc(N)c2ncn(C3O[C@H](COP(=O)(O)O)[C@@H](O)[C@H]3O)c2n1 (stereo not given in full) ?
4.5

Would you mind telling me what Relative inhibition index value was observed for CCC[C@H](OP(=O)(O)O)[C@H]1OC(n2cnc3c(N)ncnc32)[C@H](O)[C@@H]1O (stereo not given in full) ?
4.3

Would you mind telling me what Relative inhibition index value was observed for Nc1nc(N)c2ncn([C@@H]3O[C@H](COP(=O)(O)O)[C@@H](O)[C@H]3O)c2n1 ?
4

Would you mind telling me what Relative inhibition index value was observed for C[C@@H]1[C@H](O)[C@@H](COP(=O)(O)O)O[C@H]1n1cnc2c(N)ncnc21 ?
1.1
